Test system: von Bezold-Jarisch reflex evoked by 5-HT
experiment_description: Antagonism of the von Bezold-Jarisch reflex evoked by 5-HT in the anaesthetised rat
Type: in vivo
condition_parameters: Rattus norvegicus, iv; urethane-anaesthetised male rats; 5-HT-evoked changes in heart rate; 5-HT usually 6 μg/kg i.v.; read-out: ED50 (concentration required to reduce the 5HT-evoked response to 50% of the control response)
Where a name gives a salt, the structure may show the parent alone.
observed_property: ED50 (µg/kg)
Your answer should be a plain number; it is taken to be in µg/kg.

These recorded examples may help you get a feel for the data.
{"compound": "Cl.O=C(NC1CN2CCC1CC2)N1CCc2ccccc21 (stereo not shown)", "system_tested": "von Bezold-Jarisch reflex evoked by 5-HT", "value_unit": "µg/kg", "ED50": 4.4}
{"compound": "CN1[C@@H]2CC[C@H]1C[C@@H](OC(=O)N1CCc3ccccc31)C2", "system_tested": "von Bezold-Jarisch reflex evoked by 5-HT", "value_unit": "µg/kg", "ED50": 5}
{"compound": "CC1N(C(=O)N[C@H]2C[C@H]3CC[C@@H](C2)N3C)c2ccccc2C1(C)C (stereo partly shown) [Example 21, hydrochloride]", "system_tested": "von Bezold-Jarisch reflex evoked by 5-HT", "value_unit": "µg/kg", "ED50": 1.4}

The record that follows has no ED50 shown yet.
Give the observed ED50 of COc1ccc2c(c1)CCN2C(=O)N[C@H]1C[C@H]2CC[C@@H](C1)N2C for von Bezold-Jarisch reflex evoked by 5-HT.
7

###

Test system: von Bezold-Jarisch reflex evoked by 5-HT
experiment_description: Antagonism of the von Bezold-Jarisch reflex evoked by 5-HT in the anaesthetised rat
Type: in vivo
condition_parameters: Rattus norvegicus, iv; urethane-anaesthetised male rats; 5-HT-evoked changes in heart rate; 5-HT usually 6 μg/kg i.v.; read-out: ED50 (concentration required to reduce the 5HT-evoked response to 50% of the control response)
Counter-ions that a name gives are not always drawn.
# Lookup of reported ED50 keyed by entry

{"compound": "CN1[C@@H]2CC[C@H]1C[C@@H](NC(=O)N1CCc3cc([N+](=O)[O-])ccc31)C2 [Example 16]", "ED50": "> 0.01 mg/kg"}

Query ED50 for CN1[C@@H]2CC[C@H]1C[C@@H](NC(=O)N1CCc3ccc([N+](=O)[O-])cc31)C2 [Example 17, hydrochloride]
> 0.01 mg/kg

Recall and state the measured ED50 for CN1[C@@H]2CC[C@H]1C[C@@H](NC(=O)N1CCc3cc(Cl)ccc31)C2 [Example 9] .
> 0.01 mg/kg
